Reported Ki on Carbonic anhydrase 3 (Homo sapiens) for assorted compounds, compiled from publications.
Sequence (P07451 whole entry): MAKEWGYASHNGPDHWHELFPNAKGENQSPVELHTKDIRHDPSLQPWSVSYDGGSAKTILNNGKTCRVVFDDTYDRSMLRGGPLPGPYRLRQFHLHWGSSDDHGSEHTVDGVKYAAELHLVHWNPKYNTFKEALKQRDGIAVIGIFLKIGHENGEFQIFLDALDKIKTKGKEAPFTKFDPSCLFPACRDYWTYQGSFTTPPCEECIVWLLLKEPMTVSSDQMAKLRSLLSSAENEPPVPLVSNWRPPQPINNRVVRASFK
Give just the numeric value; µM need not be written.

Challenge: Tell us which Ki value is on record for NS(=O)(=O)c1ccc(NC(=O)Cc2cccs2)cc1
Response given: 800

Challenge: Tell us which Ki value is on record for Nc1ccc(S(=O)(=O)Nc2nnc(S(N)(=O)=O)s2)cc1
Response given: 18.1

Challenge: Tell us which Ki value is on record for O=C(O)c1ccc(O)cc1
Response given: 6.61

Challenge: Tell us which Ki value is on record for O=C(NCCNCCCNCCNC(=O)C(F)(F)F)C(F)(F)F
Response given: 96
